Recorded kon by entry
target: T1, cyno activated protein C (cyno (monkey)); test: SPR (Biacore), 1:1 binding model
T1 construct: also called cyno aPC; cyno APC

Binder	kon
Hu1573-9 (antibody, V domains shown, Humanized IgG, human gamma 1 / kappa constant regions by vectors pCP-hCg1 and pCP-hck; also called H1573VH.1D + H1573Vk.2) VH: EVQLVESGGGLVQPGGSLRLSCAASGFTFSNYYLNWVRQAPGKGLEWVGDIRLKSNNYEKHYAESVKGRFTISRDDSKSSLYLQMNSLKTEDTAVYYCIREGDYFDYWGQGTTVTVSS VL: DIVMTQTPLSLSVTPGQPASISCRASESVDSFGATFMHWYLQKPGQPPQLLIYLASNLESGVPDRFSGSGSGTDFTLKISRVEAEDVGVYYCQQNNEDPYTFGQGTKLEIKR	475000 M⁻¹ s⁻¹
Hu1573-1 (antibody, V domains shown, Humanized IgG, human gamma 1 / kappa constant regions by vectors pCP-hCg1 and pCP-hck; also called H1573VH.1 + H1573Vk.2C) VH: EVQLVESGGGLVQPGGSLRLSCAASGFTFSNYYLNWVRQAPGKGLEWVGDIRLKSNNYEKHYAESVKGRFTISRDDSKNSLYLQMNSLKTEDTAVYYCAREGDYFDYWGQGTTVTVSS VL: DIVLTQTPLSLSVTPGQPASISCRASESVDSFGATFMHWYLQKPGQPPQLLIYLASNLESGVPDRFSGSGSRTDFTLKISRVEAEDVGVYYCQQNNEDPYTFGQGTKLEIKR	240000 M⁻¹ s⁻¹
Hu1573-6 (antibody, V domains shown, Humanized IgG, human gamma 1 / kappa constant regions by vectors pCP-hCg1 and pCP-hck; also called H1573VH.1C + H1573Vk.2) VH: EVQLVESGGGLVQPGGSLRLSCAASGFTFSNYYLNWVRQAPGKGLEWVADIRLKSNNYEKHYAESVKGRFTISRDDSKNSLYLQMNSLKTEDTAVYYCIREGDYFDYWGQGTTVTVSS VL: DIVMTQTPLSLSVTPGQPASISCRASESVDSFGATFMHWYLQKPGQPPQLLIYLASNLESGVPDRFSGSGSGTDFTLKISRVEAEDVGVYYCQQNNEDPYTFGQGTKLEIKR	627000 M⁻¹ s⁻¹

src = patent USRE49099
